tested-on: PIK3CD (Human) (UniProt O00329)
Sequence (O00329 whole entry, looked up): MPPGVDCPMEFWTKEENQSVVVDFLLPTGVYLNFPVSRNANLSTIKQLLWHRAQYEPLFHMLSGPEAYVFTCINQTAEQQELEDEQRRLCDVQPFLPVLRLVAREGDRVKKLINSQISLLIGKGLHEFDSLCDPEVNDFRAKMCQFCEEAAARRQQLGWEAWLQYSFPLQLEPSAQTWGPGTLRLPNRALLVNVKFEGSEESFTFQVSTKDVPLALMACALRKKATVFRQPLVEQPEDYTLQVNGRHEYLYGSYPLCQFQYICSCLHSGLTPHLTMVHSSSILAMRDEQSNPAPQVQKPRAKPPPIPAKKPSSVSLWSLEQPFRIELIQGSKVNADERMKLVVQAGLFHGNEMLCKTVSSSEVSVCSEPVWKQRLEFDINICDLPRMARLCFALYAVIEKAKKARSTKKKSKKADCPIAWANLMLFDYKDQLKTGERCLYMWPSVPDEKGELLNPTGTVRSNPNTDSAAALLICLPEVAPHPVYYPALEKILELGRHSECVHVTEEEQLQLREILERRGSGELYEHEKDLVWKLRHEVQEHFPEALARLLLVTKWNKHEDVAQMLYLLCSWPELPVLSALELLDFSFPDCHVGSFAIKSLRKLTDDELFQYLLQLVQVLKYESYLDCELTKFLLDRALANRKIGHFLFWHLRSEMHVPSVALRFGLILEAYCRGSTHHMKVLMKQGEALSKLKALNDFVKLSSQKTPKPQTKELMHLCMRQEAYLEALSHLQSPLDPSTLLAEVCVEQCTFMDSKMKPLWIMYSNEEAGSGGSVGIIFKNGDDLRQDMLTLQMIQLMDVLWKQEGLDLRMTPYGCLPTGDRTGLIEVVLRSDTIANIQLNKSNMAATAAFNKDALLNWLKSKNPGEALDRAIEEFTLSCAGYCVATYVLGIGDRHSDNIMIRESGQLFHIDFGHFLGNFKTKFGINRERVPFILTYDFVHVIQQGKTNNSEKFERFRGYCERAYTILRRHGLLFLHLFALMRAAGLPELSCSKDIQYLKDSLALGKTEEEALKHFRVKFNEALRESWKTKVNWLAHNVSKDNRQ
pIC50: −log10 of the molar value.
Answer no if pIC50 is under 7, and yes if it is 7 or more.

> print(dat)
                                   compound  assigned.class
1  CCn1ncc(-c2nc3c(O[C@@H]4CC[C@H](NC(=O)OC(C)(C)C)C4)ncnc3n2C)c1C              no
2  CCn1ncc(-c2nc3c(O[C@H]4CCN(S(=O)(=O)CC)C4)ncnc3n2C)c1C              no
3  CCn1c(-c2cnc(C)nc2)nc2c(O[C@H]3CCN(C(=O)C4[C@@H](C)[C@H]4C)C3)ncnc21 (some centres undefined)             yes
4  Cn1c(-c2cncc3ccccc23)nc2c(O[C@H]3CCN(C(=O)OC(C)(C)C)C3)ncnc21              no
5  CCn1ncc(-c2nc3c(O[C@H]4CCN(C(=O)c5cnn6cccnc56)C4)ncnc3n2C)c1C             yes
6  Cn1c(-c2ccc(-n3cccn3)cc2)nc2c(O[C@H]3CCN(C(=O)OC(C)(C)C)C3)ncnc21             yes
7  CCn1c(-c2cnc(OC)c(Cl)c2)nc2c(O[C@H]3CCN(C(=O)C4CC4)C3)ncnc21             yes
8  Cc1n[nH]c2ncc(-c3nc4c(O[C@H]5CCN(C(=O)OC(C)(C)C)C5)ncnc4n3C)cc12             yes
9  CCn1c(-c2cnc(C)nc2)nc2c(O[C@H]3CCN(C(=O)N4CC(C)(OC)C4)C3)ncnc21             yes

----------
Below are compounds with their pIC50 as measured on PIK3CD (Human) (UniProt O00329).
pIC50: −log10 of the molar value.
readout-kind: pIC50

> print(dat)
                                    compound  numeric.value
 1  CCC(=O)N1CC[C@H](Oc2ncnc3c2nc(-c2cnc(OC)c(C(F)(F)F)c2)n3C)C1           8.11
 2  CCn1c(-c2cnc(C)nc2)nc2c(O[C@H]3CCN(C(=O)OCCN(C)C)C3)ncnc21           7.42
 3  CCn1c(-c2cnc(C)nc2)nc2c(O[C@H]3CCN(c4cnccn4)C3)ncnc21           7.49
 4  CCC(=O)N1CC[C@H](Oc2ncnc3c2nc(CC(C)C)n3C)C1           6.05
 5  CCn1ncc(-c2nc3c(S[C@H]4CCN(C(=O)OC(C)(C)C)C4)ncnc3n2C)c1C           7.64
 6  CCn1ncc(-c2nc3c(O[C@H]4CCN(C(=O)c5cc(C)n(C)n5)C4)ncnc3n2C)c1C           6.82
 7  CCn1c(-c2cnc(C)nc2)nc2c(O[C@H]3CCN(C(=O)C4CCOCC4)C3)ncnc21           8.07
 8  CCn1c(N2CCC(S(C)(=O)=O)C2)nc2c(O[C@H]3CCN(C(=O)OC(C)(C)C)C3)ncnc21 (some centres undefined)           6.15
 9  CCn1ncc(-c2nc3c(O[C@H]4CCN(c5ccccn5)C4)ncnc3n2C)c1C           6.17
10  CCn1c(-c2cnc(C)nc2)nc2c(OC3CCC(NC(=O)C4CCOCC4)C3)ncnc21 (centres undefined)           6.77
11  CCn1ncc(-c2nc3c(O[C@H]4CCN(c5nncc6ccccc56)C4)ncnc3n2C)c1C           7.77
12  CCn1ncc(-c2nc3c(O[C@H]4CCN(C(=O)c5cccn5C)C4)ncnc3n2C)c1C           8.06
13  CCn1c(-c2cnc(C)c(F)c2)nc2c(O[C@H]3CCN(C(=O)C4CC4)C3)ncnc21           8.37
14  CCn1c(-c2cnc(C)nc2)nc2c(OC3(C)CCN(C(=O)C4CC4)C3)ncnc21 (centres undefined)           8.06
15  CCn1c(-c2ccc(OC)c(F)c2)nc2c(O[C@H]3CCN(C(=O)C4CC4)C3)ncnc21           8.66
16  CCC(=O)N1CC[C@H](Oc2ncnc3c2nc(-c2cnc4[nH]nc(C)c4c2)n3C)C1           7.64
17  CCn1ncc(-c2nc3c(O[C@H]4CCN(C(=O)c5noc(C(C)(C)O)n5)C4)ncnc3n2C)c1C           6.92
18  CCn1ncc(-c2nc3c(S[C@H]4CCN(C(=O)C5CC5)C4)ncnc3n2C)c1C           8.42
19  CCn1c(-c2cnc(C)nc2)nc2c(O[C@H]3CCN(C(=O)N4CC(OC)C4)C3)ncnc21           8.74

----------
tested-on: PIK3CD (Human) (UniProt O00329)
pIC50: −log10 of the molar value.
Parameter pIC50: see the listing below.
readout-kind: pIC50

> print(dat)
                                    compound  relation.sign  numeric.value
 1  CCn1ncc(-c2nc3c(OC4CCN(C(=O)OC(C)(C)C)CC4)ncnc3n2C)c1C              =           6.21
 2  CCC(=O)N1CC[C@H](Oc2ncnc3c2nc(-c2cnc(OC)c(C)c2)n3C)C1              =           8.68
 3  CCn1c(-c2ccc(OC(F)(F)F)cc2)nc2c(O[C@H]3CCN(C(=O)C4CC4)C3)ncnc21              =           8.03
 4  CCn1c(-c2cnc(C)nc2)nc2c(OC3CN(Cc4ccccc4)CC3(C)C)ncnc21 (centres undefined)              =           7.55
 5  CCn1ncc(-c2nc3c(O[C@H]4CCN(C(=O)Oc5ccc(C)cc5)C4)ncnc3n2C)c1C              =           6.47
 6  CCC(=O)N1CC[C@H](S(=O)(=O)c2ncnc3c2nc(-c2cnn(CC)c2C)n3C)C1              =           6.68
 7  CCn1c(-c2cnc(C)nc2)nc2c(O[C@H]3CCN(C(=O)N4C5CCC4CC5)C3)ncnc21              =           8.00
 8  CCn1ncc(-c2nc3c(O[C@H]4CCN(C(=O)c5ncoc5C)C4)ncnc3n2C)c1C              =           8.14
 9  Cn1c(-c2ccc(N3CCOCC3)nc2)nc2c(O[C@H]3CCN(C(=O)OC(C)(C)C)C3)ncnc21              =           5.36
10  CCC(=O)N1CC[C@H](Oc2ncnc3c2nc(Oc2cnc(C)nc2)n3C)C1              =           6.42
11  CCn1ncc(-c2nc3c(O[C@H]4CCN(C(=O)c5cnoc5C)C4)ncnc3n2C)c1C              =           7.44
12  CCn1c(-c2cnn(-c3ccccc3)c2C)nc2c(O[C@H]3CCN(C(=O)C4CC4)C3)ncnc21              >           9.00
13  CCn1ncc(-c2nc3c(OC4CCN(C(=O)COC)C4)ncnc3n2C)c1C (centres undefined)              =           7.11
14  CCn1c(-c2cnc(C)nc2)nc2c(O[C@H]3CCN(c4ccccn4)C3)ncnc21              =           8.77
15  CCn1ncc(-c2nc3c(O[C@H]4CCN(C(=O)c5ocnc5C)C4)ncnc3n2C)c1C              =           7.82
16  CCn1ncc(-c2nc3c(O[C@H]4CCN(c5ncnc6c5cnn6C)C4)ncnc3n2C)c1C              =           6.92
17  CCn1ncc(-c2nc3c(O[C@H]4CCN(C(=O)c5ccnn5C(C)C)C4)ncnc3n2C)c1C              =           7.64
18  CCOC(=O)N1CC[C@H](Oc2ncnc3c2nc(-c2cnc(C)nc2)n3CC)C1              =           7.74
19  CCn1ncc(-c2nc3c(O[C@H]4CCN(C(=O)c5ccn(C)n5)C4)ncnc3n2C)c1C              =           8.66
